- System tested: HIS-TGF-βR1 T204D (Homo sapiens (Human), UniProt P36897, T204D)
- Sequence (P36897 34-503 T204D): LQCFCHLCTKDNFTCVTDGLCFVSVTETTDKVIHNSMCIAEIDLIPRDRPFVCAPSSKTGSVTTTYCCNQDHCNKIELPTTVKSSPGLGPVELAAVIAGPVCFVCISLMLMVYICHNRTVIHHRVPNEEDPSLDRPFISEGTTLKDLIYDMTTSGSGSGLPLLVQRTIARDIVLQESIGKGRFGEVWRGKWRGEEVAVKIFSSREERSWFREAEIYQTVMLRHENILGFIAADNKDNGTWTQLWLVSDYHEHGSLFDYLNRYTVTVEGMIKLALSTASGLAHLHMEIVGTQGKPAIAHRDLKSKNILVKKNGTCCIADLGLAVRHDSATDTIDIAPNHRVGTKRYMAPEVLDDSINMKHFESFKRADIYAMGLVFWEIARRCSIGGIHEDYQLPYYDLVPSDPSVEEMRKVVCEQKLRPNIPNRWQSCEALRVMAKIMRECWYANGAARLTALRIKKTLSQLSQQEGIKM
- Assay: HTRF probe displacement assay with HIS-TGF-βR1 T204D
- Details: read-out: TGFbr1 IC50; HTRF probe displacement, 1 nM HIS-TGF-βR1 T204D, 1 hour at room temperature
Yes if IC50 is below 5 nM. No if not; exact matches included in No.

INSERT INTO results (molecule, system_tested, category_label) VALUES
  ('N#Cc1cnc2ccc(-c3c(-c4ccc(F)cc4)ncn3CCCF)nn12 [21′]', 'HIS-TGF-βR1 T204D (Homo sapiens (Human), UniProt P36897, T204D)', 'Yes'),
  ('N#Cc1cnc2ccc(-c3c(-c4ccc(F)cc4)ncn3[C@@H](CO)CC(F)(F)F)nn12 [28′]', 'HIS-TGF-βR1 T204D (Homo sapiens (Human), UniProt P36897, T204D)', 'Yes'),
  ('CC(C)(O)Cn1cnc(-c2ccc(F)cc2)c1-c1ccc2ncc(C#N)n2c1 [90′]', 'HIS-TGF-βR1 T204D (Homo sapiens (Human), UniProt P36897, T204D)', 'No');

Query: Decide: IC50 of CCC(O)Cn1cnc(-c2ccc(F)cc2)c1-c1ccc2ncc(C#N)n2c1 (stereo not shown) [70′] strictly below 5 nM?
Response: No

Query: Decide: IC50 of CC(F)(F)Cn1cnc(-c2ccc(F)cc2)c1-c1ccc2ncc(C(N)=O)n2n1 [137′] strictly below 5 nM?
Response: Yes

Query: Decide: IC50 of NC(=O)c1cnc2ccc(-c3c(-c4ccc(F)cc4)ncn3C3CNC3)nn12 [195B′] strictly below 5 nM?
Response: No

Query: Decide: IC50 of CC(C)n1cnc(-c2ccc(F)cc2)c1-c1ccc2ncc(C#N)n2n1 [24′] strictly below 5 nM?
Response: Yes

Query: Decide: IC50 of Fc1ccc(Cl)cc1-c1ncn(CC(F)F)c1-c1ccc2nccn2c1 [222′] strictly below 5 nM?
Response: Yes

Query: Decide: IC50 of O=C(NCc1cnc2ccc(-c3c(-c4ccc(F)cc4)ncn3CC(F)F)nn12)C1CC1 [Example 198′] strictly below 5 nM?
Response: No

Query: Decide: IC50 of N#Cc1cnc2ccc(-c3c(-c4ccc(F)cc4)nc(N)n3CC(F)F)cn12 [Example 298′] strictly below 5 nM?
Response: No

Query: Decide: IC50 of Cn1cnc(-c2ccc(F)cc2)c1-c1ccc2ncc(C(N)=O)n2n1 [134′] strictly below 5 nM?
Response: Yes

Query: Decide: IC50 of CCn1cnc(-c2ccc(F)cc2)c1-c1ccc2ncc(C#N)n2n1 [10′] strictly below 5 nM?
Response: Yes
